Reported metabolised at 0.5 h values for the following compounds.
assay: Metabolic stability in rat liver microsomes assessed as compound degradation measured after 30 mins; format: ADME, Microsome; settings: read-out: Drug degradation
Numbers only here, please. The scale is %.

[[record]]
structure_as_smiles = "C[C@H]1CCN1c1nc(-c2cnn(C3CN(C)C3)c2)cc(C(F)(F)F)n1"
experimental_value = 86

[[record]]
structure_as_smiles = "C[C@H]1CCN1c1nc(-c2cnn(CC(=O)N3CCNCC3)c2)cc(C(F)(F)F)n1"
experimental_value = 18

[[record]]
structure_as_smiles = "CC(=O)N1CCC(n2cc(-c3cc(C(F)(F)F)c(C#N)c(N4CC[C@@H]4C)n3)cn2)CC1"
experimental_value = 30

[[record]]
structure_as_smiles = "C[C@H]1CCN1c1nc(-c2cnn(CCN(C)C)c2)cc(C(F)(F)F)c1C#N"
experimental_value = 83

[[record]]
structure_as_smiles = "OC[C@H]1CCN1c1nc(-c2cnn(C3CCNCC3)c2)cc(C(F)(F)F)n1"
experimental_value = 0


Data request: Item C[C@H]1CCN1c1nc(-c2cnn(C3CCN(CCO)CC3)c2)cc(C(F)(F)F)c1C#N has what recorded metabolised at 0.5 h?
Data returned: 38

Data request: Proceed to C[C@H]1CCN1c1nc(-c2cnn(C3CCNCC3)c2)cc(C(F)(F)F)n1
Data returned: 17

Data request: Okay, and C[C@H]1CCN1c1nc(-c2cnn(C3CNC3)c2)cc(C(F)(F)F)c1C#N ?
Data returned: 26

Data request: Also C[C@H]1CCN1c1nc(-c2cnn(C3CNC3)c2)cc(C(F)(F)F)n1 , if possible.
Data returned: 11

Data request: Item: C[C@H]1CCN1c1nc(-c2cnn(CC(=O)N3CCN(C)CC3)c2)cc(C(F)(F)F)c1C#N
Data returned: 52

Data request: Please answer likewise for C[C@H]1CCN1c1nc(-c2cnn(C3CCOCC3)c2)cc(C(F)(F)F)c1C#N
Data returned: 98

Data request: Quick one: OC[C@H]1CCN1c1nc(-c2cnn(C3CNC3)c2)cc(C(F)(F)F)n1
Data returned: 0
